FYI, the data here is from patent US20050130989A1.

Assignment: determine reported pIC50 for the given compounds.
Tested on: HCT116 cells
Experiment: Inhibition of proliferation of the human colon tumor line HCT116 ([14C]-thymidine incorporation)
Assay type: cell-based
Settings: Homo sapiens, HCT-116, 48 h, 48 hours at 37° C., read-out: Inhibition of HCT116 proliferation IC 50 (μm)
Procedure: The proliferation of HCT116 cells is evaluated by measuring the incorporation of [^14C]-thymidine in the following manner. […] [^14C]-thymidine (0.1 μCi/well) and the products to be evaluated are then added. […] 48 hours after incubation at 37° C., the radioactivity incorporated into the cells is measured by counting the plate in a TRI-LUX counter (Wallac). […]
Quick note: pIC50 values are minus log10 of concentrations in mol/L.

Exercise: For Cc1ccc(-n2nc(C)cc2C(=O)N2CCN(c3cccc(Cl)c3)CC2)cc1 , write its pIC50.
Key: 6.66

Exercise: For Cc1cc(C(=O)N2CCN(c3ccc(C)c(C)c3)CC2)n(-c2ccccc2)n1 , write its pIC50.
Key: 6.80

Exercise: For Cc1cc(C(=O)N2CCN(c3cc(Cl)ccc3C)CC2)n(-c2cccc(F)c2)n1 , write its pIC50.
Key: 6.33

Exercise: For Cc1cc(C(=O)N2CCN(c3ccc(Cl)c(Cl)c3)CC2)n(-c2ccccc2)n1 , write its pIC50.
Key: 6.52

Exercise: For COc1cc(OC)cc(N2CCN(C(=O)c3cc(C=O)nn3-c3ccccc3)CC2)c1 , write its pIC50.
Key: 8.39

Exercise: For COc1ccc(Cl)cc1N1CCN(C(=O)c2cc(C)nn2-c2ccc(Cl)cc2)CC1 , write its pIC50.
Key: 6.33

Exercise: For COc1ccc(Cl)cc1N1CCN(C(=O)c2cc(C)nn2-c2cccc(C)c2)CC1 , write its pIC50.
Key: 6.93

Exercise: For N#Cc1cccc(-n2nc(C(F)(F)F)cc2C(=O)N2CCN(c3cccc(Cl)c3)CC2)c1 , write its pIC50.
Key: 5.87

Exercise: For Cc1cc(C(=O)N2CCN(c3cccc(Cl)c3Cl)CC2)n(-c2ccccc2)n1 , write its pIC50.
Key: 6.92

----------
tested on: HCT116 cells; assay: Inhibition of proliferation of the human colon tumor line HCT116 ([14C]-thymidine incorporation); assay type: cell-based; details: Homo sapiens, HCT-116, 48 h, 48 hours at 37° C., read-out: Inhibition of HCT116 proliferation IC 50 (μm)
OBSERVABLE: pIC50
Quick note: pIC50 values are minus log10 of concentrations in mol/L.

Exercise: For Cc1cc(C(=O)N2CCN(c3cccc(C(N)=O)c3)CC2)n(-c2cccnc2)n1 , write its pIC50.
Key: 7.09

Exercise: For Cc1cc(C(=O)N2CCN(c3ccc4c(c3)OCCO4)CC2)n(-c2ccc(F)cc2)n1 , write its pIC50.
Key: 7.15

Exercise: For CCc1ccccc1N1CCN(C(=O)c2cc(C)nn2-c2ccc(F)cc2)CC1 , write its pIC50.
Key: 6.55

Exercise: For Cc1cc(C(=O)N2CCN(c3ccc(F)cc3)CC2)n(-c2ccccc2)n1 , write its pIC50.
Key: 6.53

Exercise: For O=Cc1cc(C(=O)N2CCN(c3cccc(Cl)c3)CC2)n(-c2ccccc2)n1 , write its pIC50.
Key: 7.97

Exercise: For COc1cc(OC)cc(N2CCN(C(=O)c3cc(N4CCCC4)nn3-c3ccccc3)CC2)c1 , write its pIC50.
Key: 8.20

Exercise: For COc1ccccc1N1CCN(C(=O)c2cc(C)nn2-c2cccc(Cl)c2)CC1 , write its pIC50.
Key: 7.40

Exercise: For Cc1cc(C(=O)N2CCN(c3ccccc3C(F)(F)F)CC2)n(-c2cccc(Cl)c2)n1 , write its pIC50.
Key: 6.05

Exercise: For COc1cc(OC)cc(N2CCN(C(=O)c3cc(N4CCC(O)C4)nn3-c3ccccc3)CC2)c1 (centres unmarked) , write its pIC50.
Key: 6.85

Exercise: For COc1cc(OC)cc(N2CCN(C(=O)c3cc(C(C)C)nn3-c3ccccc3)CC2)c1 , write its pIC50.
Key: 6.70

Exercise: For NC(=O)c1cccc(N2CCN(C(=O)c3cc(C(F)(F)F)nn3-c3ccccc3)CC2)c1 , write its pIC50.
Key: 7.99

Exercise: For Cc1cccc(-n2nc(C)cc2C(=O)N2CCN(c3ccc(F)cc3)CC2)c1 , write its pIC50.
Key: 6.51

Exercise: For COc1cc(OC)cc(N2CCN(C(=O)c3cc(-c4ccc(F)cc4)nn3-c3ccccc3)CC2)c1 , write its pIC50.
Key: 5.90

Exercise: For Cc1cc(C(=O)N2CCN(c3nccc4ccccc34)CC2)n(-c2ccccc2)n1.Cl [Example E15, hydrochloride] , write its pIC50.
Key: 6.62

Exercise: For Cc1cc(C(=O)N2CCN(c3ccc(Cl)c(Cl)c3)CC2)n(-c2cccc(Cl)c2)n1 , write its pIC50.
Key: 7.14

Exercise: For Cc1cccc(N2CCN(C(=O)c3cc(C)nn3-c3cccc(Cl)c3)CC2)c1 , write its pIC50.
Key: 7.29

Exercise: For Cc1cc(C(=O)N2CCN(c3ccc(F)cc3)CC2)n(-c2cccc(Cl)c2)n1 , write its pIC50.
Key: 6.62

----------
biological target: tubulin (Sus scrofa, UniProt P02550+P02554); construct: Tubulin is purified from pig brain according to published methods; assay: Evaluation of the inhibition of tubulin polymerization (turbidimetry); conditions: tubulin 10 μm (1 mg/ml), 37° C., turbidity at 350 nm; concentration that inhibits the rate of polymerization by 50%; read-out: Inhibition of tubulin polymerization IC 50 (μm)
Sequence (P02550 whole entry): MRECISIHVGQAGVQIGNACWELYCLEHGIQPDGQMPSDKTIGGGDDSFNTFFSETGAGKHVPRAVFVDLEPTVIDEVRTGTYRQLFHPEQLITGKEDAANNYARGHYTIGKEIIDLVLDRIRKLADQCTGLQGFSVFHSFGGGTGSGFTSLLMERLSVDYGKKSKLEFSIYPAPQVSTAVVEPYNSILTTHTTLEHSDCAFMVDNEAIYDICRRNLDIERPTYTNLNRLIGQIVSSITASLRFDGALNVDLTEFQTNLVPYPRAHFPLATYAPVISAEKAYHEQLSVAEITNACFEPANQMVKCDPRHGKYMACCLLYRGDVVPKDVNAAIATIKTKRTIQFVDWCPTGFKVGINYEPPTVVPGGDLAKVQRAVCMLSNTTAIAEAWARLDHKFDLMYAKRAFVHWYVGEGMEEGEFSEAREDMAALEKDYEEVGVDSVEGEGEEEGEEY
Sequence (P02554 whole entry): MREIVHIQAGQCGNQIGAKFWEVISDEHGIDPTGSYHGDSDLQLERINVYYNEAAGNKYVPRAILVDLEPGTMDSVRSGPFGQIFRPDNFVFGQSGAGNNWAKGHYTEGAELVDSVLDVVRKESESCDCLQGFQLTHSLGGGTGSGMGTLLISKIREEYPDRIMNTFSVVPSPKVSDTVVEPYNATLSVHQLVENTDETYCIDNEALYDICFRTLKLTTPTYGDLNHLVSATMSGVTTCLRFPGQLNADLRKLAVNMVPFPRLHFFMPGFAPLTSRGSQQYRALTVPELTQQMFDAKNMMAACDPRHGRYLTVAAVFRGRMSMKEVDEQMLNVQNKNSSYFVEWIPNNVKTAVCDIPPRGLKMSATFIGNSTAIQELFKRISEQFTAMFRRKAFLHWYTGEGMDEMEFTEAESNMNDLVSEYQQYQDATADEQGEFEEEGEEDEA
Assignment: determine reported pIC50 for the given molecules.
Quick note: pIC50 values are minus log10 of concentrations in mol/L.

Exercise: For O=C(c1ccnn1-c1ccccc1)N1CCN(c2cccc(Cl)c2)CC1 , write its pIC50.
Key: 5.92

Exercise: For O=C(c1cc(C(F)(F)F)nn1-c1ccccc1)N1CCN(c2cccc(Cl)c2)CC1 , write its pIC50.
Key: 5.64

Exercise: For CSc1ccccc1N1CCN(C(=O)c2cc(C)nn2-c2cccc(C)c2)CC1 , write its pIC50.
Key: 5.70

Exercise: For CCOc1ccccc1N1CCN(C(=O)c2cc(C)nn2-c2cccc(Cl)c2)CC1 , write its pIC50.
Key: 5.60

Exercise: For Cc1cc(C(=O)N2CCN(c3cccc4ccccc34)CC2)n(-c2ccccc2)n1 , write its pIC50.
Key: 5.22

Exercise: For COc1cc(OC)cc(N2CCN(C(=O)c3cc(C(F)(F)F)nn3-c3cccc(C#N)c3)CC2)c1 , write its pIC50.
Key: 5.96

Exercise: For Cc1cc(C(=O)N2CCN(c3cccc(C)c3C)CC2)n(-c2cccc(Cl)c2)n1 , write its pIC50.
Key: 5.12

Exercise: For Cc1cc(C(=O)N2CCN(c3ccc(C)c(C)c3)CC2)n(-c2cccc(F)c2)n1 , write its pIC50.
Key: 5.46

----------
biological target: tubulin (Sus scrofa, UniProt P02550+P02554); construct: Tubulin is purified from pig brain according to published methods; from tissue; host or cells: pig brain; experiment: Evaluation of the inhibition of tubulin polymerization (turbidimetry); assay type: biochemical, pig; conditions: tubulin 10 μm (1 mg/ml), 37° C., turbidity at 350 nm; concentration that inhibits the rate of polymerization by 50%; read-out: Inhibition of tubulin polymerization IC 50 (μm)
OBSERVABLE: IC50 (nM)
Give the number; nM is assumed, so skip it.

Exercise: For COc1cccc(N2CCN(C(=O)c3cc(C)nn3-c3ccccc3)CC2)n1 , write its IC50.
Key: 2000

Exercise: For COc1cc(OC)cc(N2CCN(C(=O)c3cc(COCCF)nn3-c3ccccc3)CC2)c1 , write its IC50.
Key: 2500

Exercise: For CCC(O)c1cc(C(=O)N2CCN(c3cc(OC)cc(OC)c3)CC2)n(-c2ccccc2)n1 (stereo not drawn) , write its IC50.
Key: 4100

Exercise: For Cc1cc(C(=O)N2CCN(c3ccccc3C)CC2)n(-c2cccc(Cl)c2)n1 , write its IC50.
Key: 2700

Exercise: For CNc1cccc(N2CCN(C(=O)c3cc(C)nn3-c3ccccc3)CC2)c1 , write its IC50.
Key: 800

Exercise: For CCc1ccccc1N1CCN(C(=O)c2cc(C)nn2-c2cccc(Cl)c2)CC1 , write its IC50.
Key: 1500

Exercise: For Cc1cc(C(=O)N2CCN(c3cccc(Br)c3)CC2)n(-c2ccccc2)n1 , write its IC50.
Key: 900

Exercise: For COc1cccc(-n2nc(C)cc2C(=O)N2CCN(c3cccc(Cl)c3)CC2)c1 , write its IC50.
Key: 5000
